- experiment.summary: Mouse brain uptake assay (pharmacokinetics and brain penetration after IV administration)
- Type: in vivo, Male CD1 Mice
- measurement.context: male, CD1; mouse brain, 3 mg/kg IV, time zero to 1 hr, 3 time points; read-out: AUClast (b) (area under the brain drug concentration-time curve)
measured.endpoint: AUC(0-t) (ng·h/mL)
Give the value, in units of ng·h/mL, as a plain number.

Example entries begin here.
[
  {
    "compound": "Cc1cccnc1C1CCCN1Cc1nc2ccccc2n1C1CCN(C)CC1 (centres unmarked)",
    "units.symbol": "ng·h/mL",
    "AUC(0-t)": 1660
  },
  {
    "compound": "CN1CCN(c2c(CN3CCCC3c3ccccn3)nc3ccccn23)CC1 (centres unmarked)",
    "units.symbol": "ng·h/mL",
    "AUC(0-t)": 210
  },
  {
    "compound": "CN1CCN(c2c(CN3CCCC3c3ncccc3Cl)nc3ccccn23)CC1 (centres unmarked)",
    "units.symbol": "ng·h/mL",
    "AUC(0-t)": 240
  },
  {
    "compound": "CN1CCN(c2c(CN3CCCC3c3ccccn3)nc3ccccn23)CC12CC2 (centres unmarked)",
    "units.symbol": "ng·h/mL",
    "AUC(0-t)": 1230
  },
  {
    "compound": "CN1CCN(c2c(CN3CCCC3c3ccccn3)nc3ccc(F)cn23)CC1 (centres unmarked)",
    "units.symbol": "ng·h/mL",
    "AUC(0-t)": 518
  },
  {
    "compound": "Cc1cccnc1CN1CCCC1c1nc2cccc(N3CCN(C)CC3)c2[nH]1 (centres unmarked)",
    "units.symbol": "ng·h/mL",
    "AUC(0-t)": 833
  },
  {
    "compound": "CN1CCN(c2c(CN3CCCC3c3nccs3)nc3ccccn23)CC1 (centres unmarked)",
    "units.symbol": "ng·h/mL",
    "AUC(0-t)": 736
  }
]

Attention now shifts to the item below.
Consider the compound CN1CCN(c2cccc3[nH]c(CN4CCCC4c4ncccc4Cl)nc23)CC1 (centres unmarked) and give its recorded AUC(0-t).
742
